# Tested on: pigweed
# Test Method Notes: Test B pre/postemergence pigweed
# Type: in vivo, Amaranthus retroflexus
# Condition Label: Rate 250 g/ha, Postemergence; scale of 0 to 10 where 0 is no effect and 10 is complete control
Quantity Measured: Plant response rating, Redroot pigweed

Molecule	Recorded Result
CC(=O)C(C)n1c(=O)on(C(=O)N(c2ccccc2)C(C)C)c1=O (stereo not shown)	0
CC(C)=CCn1c(=O)on(C(=O)N(c2ccc(Cl)cc2)C(C)C)c1=O	0
COC(=O)CCCn1c(=O)on(C(=O)N(c2ccccc2)C(C)C)c1=O	0
CCOC(=O)C=C(Cn1c(=O)on(C(=O)N(c2ccccc2)C(C)C)c1=O)OCC	3
CCOC(=O)C=C(Cn1c(=O)on(C(=O)N(c2ccc(F)cc2F)C(C)C)c1=O)OCC	0
CCCCCn1c(=O)on(C(=O)N(c2ccc(Cl)cc2)C(C)C)c1=O	0
CC(C)C(C)n1c(=O)on(C(=O)N(c2ccc(F)cc2)C(C)C)c1=O (stereo not shown)	3
CC(C)N(C(=O)n1oc(=O)n(CCCCF)c1=O)c1ccccc1	8
CCC(=O)Cn1c(=O)on(C(=O)N(c2ccc(Cl)cc2)C(C)C)c1=O	0
Cc1cccc(C)c1-n1c(=O)on(C(=O)N(c2ccc(Cl)cc2Cl)C2CCC2)c1=O	0
CC(C)N(C(=O)n1oc(=O)n(CCC2OCCO2)c1=O)c1ccc(Cl)cc1	0
CCOCn1c(=O)on(C(=O)N(c2ccccc2)C(C)C)c1=O	5
CCN(CC)C(=O)n1oc(=O)n(C2CC2)c1=O	0

// provenance: patent US6737383B1
